Attribution: patent US12552834

# STUDY_TARGET: T1, ENAH EVH1 domain (monomeric, wild type) (human, UniProt Q03173 1-111 (mouse entry))
# T1 construct: ENAH residue numbers in the text count from the Met at position 25 of this entry; also called ENAH EVH1 WT; Mena EVH1 WT
# T1 sequence (Q03173 other isoform, or with tags, fused parts or gaps limits assumed): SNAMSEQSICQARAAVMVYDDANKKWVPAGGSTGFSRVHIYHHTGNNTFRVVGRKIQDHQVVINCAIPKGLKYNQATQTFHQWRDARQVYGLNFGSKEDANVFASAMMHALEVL
# ASSAY_COMMENT: BLI, steady state; SUMO-peptide immobilised, EVH1 monomer in solution
ENDPOINT_LABEL: pKd
In simple prose, pKd is minus the logarithm base ten of a concentration in moles per litre.

// solved cases for pKd follow
BINDER	ENDPOINT_LABEL	ENDPOINT_RESULT
ABI3 36-mer peptide (biotinylated (BAP tag), Tested as a biotinylated BAP-6xHis-SUMO-peptide fusion) peptide: MAGGLNDIFEAQKIEWHEDTGGSSHHHHHHGSGSGSDSEVNQEAKPEVKPEVKPETHINLKVSDGSSEIFFKIKKTTPLRRLMEAFAKRQGKEMDSLTFLYDGIEIQADQTPEDLDMEDNDIIEAHREQIGGSGSGSPPPPDEELPLPLDLPPPPPLDGDELGLPPPPPGFG	pKd	4.87
NHSL1 36mer peptide (biotinylated (BAP tag), Tested as a BAP-6xHis-SUMO-peptide fusion in BLI and ITC) peptide: MAGGLNDIFEAQKIEWHEDTGGSSHHHHHHGSGSGSDSEVNQEAKPEVKPEVKPETHINLKVSDGSSEIFFKIKKTTPLRRLMEAFAKRQGKEMDSLTFLYDGIEIQADQTPEDLDMEDNDIIEAHREQIGGSGSGADRSPFLPPPPPVTDCSQGSPLPHSPVFPPPPPEAL	pKd	5.07

Now look at this entry.
The binder listed as NUTM2E 36-mer peptide (biotinylated (BAP tag), Tested as a biotinylated BAP-6xHis-SUMO-peptide fusion) peptide: MAGGLNDIFEAQKIEWHEDTGGSSHHHHHHGSGSGSDSEVNQEAKPEVKPEVKPETHINLKVSDGSSEIFFKIKKTTPLRRLMEAFAKRQGKEMDSLTFLYDGIEIQADQTPEDLDMEDNDIIEAHREQIGGSGSGVVPVMAAQVVGGTQACEGGWSQGLPLPPPPPPAAQL has a reported pKd of 4.47
